- target_entity: dog NMUR2 (dog)
- protocol_text: cell-based or functional assay
Groups on a side chain read outwards from the residue. cholesteroyl = cholesterol group linked to a cysteine residue via the side-chain thiol
measure: % Activity (maximum response at 1 µM compared to the human NMU-25 response) (%)
Quick note: give the figure in %, leave out the unit.

Worked cases, % Activity (maximum response at 1 µM compared to the human NMU-25 response) given:
1) Ac-C([maleimide-PEG 40 kDa])ILQRGSGTAAVDFTKKDHTATWGRPFFLFRPRN-NH2 [NMS4 (Ac-C4ILQRGSGTAAVDFTKKDHTATWGRPFFLFRPRN-CONH2)] : 101
2) Ac-C(cholesteroyl)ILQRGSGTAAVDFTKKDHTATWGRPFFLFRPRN-NH2 [NMS2 (Ac-C3ILQRGSGTAAVDFTKKDHTATWGRPFFLFRPRN-CONH2)] : 84

Task: Write down % Activity (maximum response at 1 µM compared to the human NMU-25 response) measured for item Ac-C([maleimide-(PEG)2 40 kDa])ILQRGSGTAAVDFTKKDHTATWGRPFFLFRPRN-NH2 [NMS1 (Ac-C2ILQRGSGTAAVDFTKKDHTATWGRPFFLFRPRN-CONH2)]
Output: 78

Task: Write down % Activity (maximum response at 1 µM compared to the human NMU-25 response) measured for item H-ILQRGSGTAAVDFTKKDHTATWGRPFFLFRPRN-NH2 [native human Neuromedin S peptide (NMS)]
Output: 104
